src = ChEMBL document CHEMBL1765055

Form field: Ki (one value per entry).
- ASSAYED_SYSTEM: Neurotensin receptor type 1 (Homo sapiens)
- MEASUREMENT_DESCRIPTION: Displacement of [3H]neurotensin from human NTS1 receptor expressed in CHO cells
- Assay type: cell-based
PROPERTY: Ki

* H-RAPYIL-OH | 11 nM
* H-RRAYIL-OH | 26 nM
* H-ARPYIL-OH | 4.6 nM
* H-RRPYAL-OH | 100 nM
* H-RRPAIL-OH | 1300 nM

----------
Hi! I'm sharing some Ki results obtained with Neurotensin receptor type 2 (Homo sapiens).
Non-standard residues stand in square brackets, D forms with d. Residues, ends and D or L forms follow the SMILES beside them. N(4-hydroxyphenethyl)Gly = O=C(O)CNCCc1ccc(O)cc1; Gly(N-4-hydroxybenzyl) = O=C(O)CNCc1ccc(O)cc1
PROPERTY: Ki (nM)

* CC[C@H](C)[C@H](NC(=O)CN(CCc1ccc(O)cc1)C(=O)[C@@H]1CCCN1C(=O)[C@H](CCCNC(=N)N)NC(=O)[C@@H](N)CCCCN)C(=O)N[C@@H](CC(C)C)C(=O)O (H-KRP[N(4-hydroxyphenethyl)Gly]IL-OH) | 4.4
* CC[C@H](C)[C@H](NC(=O)[C@H](Cc1ccc(O)cc1)NC(=O)[C@@H]1CCCN1C(=O)CN(CCCCN)C(=O)[C@@H](N)CCCCN)C(=O)N[C@@H](CC(C)C)C(=O)O | 21
* CC[C@H](C)[C@H](NC(=O)[C@H](Cc1ccc(O)cc1)NC(=O)[C@@H]1CCCN1C(=O)[C@H](CCCNC(=N)N)NC(=O)[C@@H](N)CCCNC(=N)N)C(=O)N[C@@H](C)C(=O)O | 1300
* CC[C@H](C)[C@H](NC(=O)CN(Cc1ccc(O)cc1)C(=O)[C@@H]1CCCN1C(=O)[C@H](CCCCN)NC(=O)[C@@H](N)CCCCN)C(=O)N[C@@H](CC(C)C)C(=O)O (H-KKP[Gly(N-4-hydroxybenzyl)]IL-OH) | 1000
* CC[C@H](C)[C@H](NC(=O)[C@H](Cc1ccc(O)cc1)NC(=O)[C@@H]1CCCN1C(=O)[C@H](CCCCN)NC(=O)[C@@H](N)CCCCN)C(=O)N(CC(=O)O)CC(C)C | 1600
* CC[C@H](C)[C@H](NC(=O)CN(CCc1ccc(O)cc1)C(=O)[C@@H]1CCCN1C(=O)[C@H](CCCCN)NC(=O)[C@@H](N)CCCNC(=N)N)C(=O)N[C@@H](CC(C)C)C(=O)O (H-RKP[N(4-hydroxyphenethyl)Gly]IL-OH) | 6.7
* CC[C@H](C)[C@H](NC(=O)CN(CCc1ccc(O)cc1)C(=O)[C@@H]1CCCN1C(=O)[C@H](CCCCN)NC(=O)[C@@H](N)CCCCN)C(=O)N[C@@H](CC(C)C)C(=O)O (H-KKP[N(4-hydroxyphenethyl)Gly]IL-OH) | 4.3

----------
- ASSAYED_SYSTEM: Neurotensin receptor type 2 (Homo sapiens, UniProt O95665)
- Sequence (O95665 whole entry): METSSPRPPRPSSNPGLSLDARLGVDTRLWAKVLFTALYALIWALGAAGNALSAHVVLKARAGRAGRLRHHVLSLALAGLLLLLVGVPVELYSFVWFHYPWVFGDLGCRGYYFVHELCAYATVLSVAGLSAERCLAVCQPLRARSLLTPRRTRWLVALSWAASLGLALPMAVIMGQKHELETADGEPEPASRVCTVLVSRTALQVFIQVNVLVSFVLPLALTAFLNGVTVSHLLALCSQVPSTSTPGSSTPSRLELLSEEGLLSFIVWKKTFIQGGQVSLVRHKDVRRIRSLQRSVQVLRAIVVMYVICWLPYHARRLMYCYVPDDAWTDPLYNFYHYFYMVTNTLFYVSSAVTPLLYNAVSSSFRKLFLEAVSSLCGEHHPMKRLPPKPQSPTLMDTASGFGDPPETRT
- MEASUREMENT_DESCRIPTION: Agonist activity at human NTS2 receptor expressed in HEK293 cells assessed as inhibition of constitutive activity on MAPK-mediated luciferase activity
Non-standard residues stand in square brackets, D forms with d. Residues, ends and D or L forms follow the SMILES beside them. N(4-hydroxyphenethyl)Gly = O=C(O)CNCCc1ccc(O)cc1
PROPERTY: EC50

* CC[C@H](C)[C@H](NC(=O)CN(CCc1ccc(O)cc1)C(=O)[C@@H]1CCCN1C(=O)[C@H](CCCNC(=N)N)NC(=O)[C@@H](N)CCCNC(=N)N)C(=O)N[C@@H](CC(C)C)C(=O)O | 480 nM
* CC[C@H](C)[C@H](NC(=O)CN(CCc1ccc(O)cc1)C(=O)[C@@H]1CCCN1C(=O)[C@H](CCCCN)NC(=O)[C@@H](N)CCCCN)C(=O)N[C@@H](CC(C)C)C(=O)O (H-KKP[N(4-hydroxyphenethyl)Gly]IL-OH) | 590 nM
* CC[C@H](C)[C@H](NC(=O)CN(CCc1ccc(O)cc1)C(=O)[C@@H]1CCCN1C(=O)[C@H](CCCCN)NC(=O)[C@@H](N)CCCNC(=N)N)C(=O)N[C@@H](CC(C)C)C(=O)O (H-RKP[N(4-hydroxyphenethyl)Gly]IL-OH) | 840 nM
* CC[C@H](C)[C@H](NC(=O)CN(CCc1ccc(O)cc1)C(=O)[C@@H]1CCCN1C(=O)[C@H](CCCNC(=N)N)NC(=O)[C@@H](N)CCCCN)C(=O)N[C@@H](CC(C)C)C(=O)O (H-KRP[N(4-hydroxyphenethyl)Gly]IL-OH) | 690 nM

----------
# reported pKi; entries follow
- ASSAYED_SYSTEM: Neurotensin receptor type 1 (Homo sapiens, UniProt P30989)
- Sequence (P30989 whole entry): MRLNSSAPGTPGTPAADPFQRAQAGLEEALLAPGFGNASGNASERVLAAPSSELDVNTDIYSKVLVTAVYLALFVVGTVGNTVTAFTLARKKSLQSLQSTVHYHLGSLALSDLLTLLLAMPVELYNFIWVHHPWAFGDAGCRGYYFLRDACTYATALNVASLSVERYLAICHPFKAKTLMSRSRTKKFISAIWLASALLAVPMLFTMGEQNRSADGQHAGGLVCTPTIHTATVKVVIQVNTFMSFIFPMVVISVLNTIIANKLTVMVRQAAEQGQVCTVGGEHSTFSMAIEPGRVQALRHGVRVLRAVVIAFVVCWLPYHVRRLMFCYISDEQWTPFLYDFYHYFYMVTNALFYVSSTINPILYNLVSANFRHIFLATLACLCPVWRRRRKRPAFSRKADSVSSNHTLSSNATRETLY
pKi: −log10 of the molar value. Non-standard residues stand in square brackets, D forms with d. Residues, ends and D or L forms follow the SMILES beside them. N(4-hydroxyphenethyl)Gly = O=C(O)CNCCc1ccc(O)cc1; Gly(N-4-hydroxybenzyl) = O=C(O)CNCc1ccc(O)cc1
PROPERTY: pKi

* CC[C@H](C)[C@H](NC(=O)CN(Cc1ccc(O)cc1)C(=O)[C@@H]1CCCN1C(=O)[C@H](CCCCN)NC(=O)[C@@H](N)CCCCN)C(=O)N[C@@H](CC(C)C)C(=O)O (H-KKP[Gly(N-4-hydroxybenzyl)]IL-OH) | 4.52
* CC[C@H](C)[C@H](NC(=O)CN(CCc1ccc(O)cc1)C(=O)[C@@H]1CCCN1C(=O)[C@H](CCCNC(=N)N)NC(=O)[C@@H](N)CCCCN)C(=O)N[C@@H](CC(C)C)C(=O)O (H-KRP[N(4-hydroxyphenethyl)Gly]IL-OH) | 5.08
* CC[C@H](C)[C@H](NC(=O)CN(CCc1ccc(O)cc1)C(=O)[C@@H]1CCCN1C(=O)[C@H](CCCCN)NC(=O)[C@@H](N)CCCCN)C(=O)N[C@@H](CC(C)C)C(=O)O (H-KKP[N(4-hydroxyphenethyl)Gly]IL-OH) | 4.49
* CC[C@H](C)[C@H](NC(=O)CN(CCc1ccc(O)cc1)C(=O)[C@@H]1CCCN1C(=O)[C@H](CCCCN)NC(=O)[C@@H](N)CCCNC(=N)N)C(=O)N[C@@H](CC(C)C)C(=O)O (H-RKP[N(4-hydroxyphenethyl)Gly]IL-OH) | 4.10

----------
Measured Ratio Ki values are reported for all entries that follow.
- Species on record: Homo sapiens
- MEASUREMENT_DESCRIPTION: Selectivity ratio of Ki for human NTS1 to Ki for human NTS2
Non-standard residues stand in square brackets, D forms with d. Residues, ends and D or L forms follow the SMILES beside them. N(4-hydroxyphenethyl)Gly = O=C(O)CNCCc1ccc(O)cc1; Gly(N-4-hydroxybenzyl) = O=C(O)CNCc1ccc(O)cc1
PROPERTY: Ratio Ki

* CC[C@H](C)[C@H](NC(=O)CN(CCc1ccc(O)cc1)C(=O)[C@@H]1CCCN1C(=O)[C@H](CCCNC(=N)N)NC(=O)[C@@H](N)CCCCN)C(=O)N[C@@H](CC(C)C)C(=O)O (H-KRP[N(4-hydroxyphenethyl)Gly]IL-OH) | 1900
* CC[C@H](C)[C@H](NC(=O)CN(Cc1ccc(O)cc1)C(=O)[C@@H]1CCCN1C(=O)[C@H](CCCCN)NC(=O)[C@@H](N)CCCCN)C(=O)N[C@@H](CC(C)C)C(=O)O (H-KKP[Gly(N-4-hydroxybenzyl)]IL-OH) | 30
* CC[C@H](C)[C@H](NC(=O)CN(CCc1ccc(O)cc1)C(=O)[C@@H]1CCCN1C(=O)[C@H](CCCCN)NC(=O)[C@@H](N)CCCCN)C(=O)N[C@@H](CC(C)C)C(=O)O (H-KKP[N(4-hydroxyphenethyl)Gly]IL-OH) | 7400
* CC[C@H](C)[C@H](NC(=O)CN(CCc1ccc(O)cc1)C(=O)[C@@H]1CCCN1C(=O)[C@H](CCCCN)NC(=O)[C@@H](N)CCCNC(=N)N)C(=O)N[C@@H](CC(C)C)C(=O)O (H-RKP[N(4-hydroxyphenethyl)Gly]IL-OH) | 12000

----------
- ASSAYED_SYSTEM: Neurotensin receptor type 2 (Homo sapiens, UniProt O95665)
- MEASUREMENT_DESCRIPTION: Displacement of [3H]NT from human NTS2 receptor expressed in HEK293 cells
- Assay type: cell-based
pKi: −log10 of the molar value.
The reader will find reported pKi values listed item by item below.
PROPERTY: pKi

* H-RRAYIL-OH | 7.20
* H-RRPAIL-OH | 7.08
* H-RRPYAL-OH | 7.20
* H-RAPYIL-OH | 7.62
* H-ARPYIL-OH | 7.25
